- Tested on: IGROV1 ovarian
- run-description: NCI tumour cell line growth inhibition, 48 h
measure: TGI

Parameters: items (list). Returns: TGI for each item.
1. C=C1CC[C@]2(C)[C@H](CC[C@@]34C[C@@H](CC[C@H]32)[C@@H](C(=O)O)C4)C1(C)C
2. CC1(C)OCC[C@@H]1[Si](C)(C)C
3. O=C(Nc1ccccc1C(=O)N/N=C(\c1ccccc1)c1ccccn1)c1ccccc1
4. COc1cc(Br)c(CC2C3=C(CCN2C(=O)C2CCC2)CC2(CC3)OCCO2)cc1O (configuration not stated)
5. COC(=O)C(=O)C(CC(=O)Nc1c(C)cccc1C)C(=O)OC (configuration not stated)

Response line:
["> 12.5 µM", "> 100 µM", "> 100 µM", "> 100 µM", "> 100 µM"]

###

- Tested on: TK-10 renal
- run-description: NCI tumour cell line growth inhibition, 48 h
measure: TGI

Below, 3 molecules whose answers are already recorded.
Prompt line: # get_value(readout='TGI', item= O=c1cc(-c2ccccc2)[nH]c2ccc(N3CCCC3)cc12 )
Response line: > 100 µM

Prompt line: Reported TGI, molecule O=C(O)CCC1(C(=O)O)CCC(=O)c2ccccc21 (stereo unspecified) : ____
Response line: > 100 µM

Prompt line: Return reported TGI; argument: CCCC(=O)Nc1ccc(O)c2c1C1CCCCCC21 (stereo unspecified)
Response line: > 100 µM

// each listed molecule needs a value for TGI
1. O=C1c2ccccc2CC12CCC1(CC2)OCCO1
2. O=c1oc2c([N+](=O)[O-])cc([N+](=O)[O-])cc2c2ccccc12

Response line:
1: > 100 µM; 2: > 100 µM

Prompt line: Form field: reported TGI of CCCCCCC1=NOC(C(c2cc[nH]c2)N(C)[C@H](C(=O)OC)C(C)C)C1 (stereo partly specified)
Response line: > 100 µM

###

Please go through the items and note down their TGI.
- System: M14 melanoma
- run-description: NCI tumour cell line growth inhibition, 48 h

Here are 3 compounds together with their reported answers.
Prompt line: Given the entry COc1ccc(C2NC(=O)c3cc4c(cc3N2)OCO4)cc1 (centres undefined) , report its measured TGI.
Response line: > 100 µM

Prompt line: Entry N#Cc1c(=N)cc2c3ccccc3oc3c(C#N)c(N)[nH]c1c32 has what TGI?
Response line: > 100 µM

Prompt line: Return reported TGI; argument: CCCCCC[n+]1noc(N)c1-c1ccc(-c2c(N)on[n+]2CCCCCC)cc1
Response line: 3.43 µg/mL

Continuing:
Prompt line: State the recorded TGI for this entry: CCCC(=O)Nc1ccc(O)c2c1C1CCCCCC21 (centres undefined)
Response line: > 100 µM

###

Would you mind telling me the reported TGI of each entry?
- Test system: OVCAR-8 ovarian
- run-description: NCI tumour cell line growth inhibition, 48 h

Worked examples follow.
Prompt line: Missing value: TGI, OVCAR-8 ovarian, entry CC(=O)/C(=C\c1c(-c2ccccc2)[nH]c2ccccc12)S(C)(=O)=O . Fill in?
Response line: > 100 µM

Prompt line: API: value(readout= TGI, system= OVCAR-8 ovarian, query= CO/C(=N\N=C\c1ccccc1F)c1ccncc1 )
Response line: > 10 µM

Prompt line: Form field - read-out: TGI; system: OVCAR-8 ovarian; submitted item: Cn1cc(-c2csc(-c3c[nH]c4ccccc34)n2)c2cccnc21
Response line: > 91.9 µM

Please turn your attention to the following entry.
Prompt line: Look up TGI with OVCAR-8 ovarian for this compound: COc1ccc(-c2csc(=[N+]3CCCCC3)s2)cc1
Response line: > 100 µM
